Recorded measurements of SI (selectivity index: CC50/EC50), one per entry
System: influenza virus (A/PR/8/34 H1N1 strain)
Experiment: organism not typed
Assay type: cell-based, Influenza A/PR/8/34 (H1N1)
Reply with just the number.

>>> value("CSc1ccccc1-c1noc(C)c1C(=O)N1CCC(c2ccc([N+](=O)[O-])cc2Cl)CC1")
398.41
>>> value("COc1ccccc1-c1noc(C)c1C(=O)N1CCC(c2ccc([N+](=O)[O-])cc2Cl)CC1")
272.93
>>> value("NC(=O)c1ncn([C@@H]2O[C@H](CO)[C@@H](O)[C@H]2O)n1 [Ribavirin, reference compound]")
6.37

Prompt: Retrieve SI (selectivity index: CC50/EC50) measured for COc1nc2ccccc2cc1-c1noc(C)c1C(=O)N1CCC(c2ccc([N+](=O)[O-])cc2Cl)CC1 and print it.
Completion: 2.52

###

System: influenza virus (A/PR/8/34 H1N1 strain)
Experiment: organism not typed
Type: cell-based, Influenza A/PR/8/34 (H1N1)
Recorded measurements of SI (selectivity index: CC50/EC50), one per entry

Recorded results for 2 molecules are shown here.
>>> value("Cc1onc(-c2ccccc2)c1C(=O)N1CCC(c2ccc([N+](=O)[O-])cc2Cl)CC1")
22.02
>>> value("COc1ccc(-c2noc(C)c2C(=O)N2CCC(c3ccc([N+](=O)[O-])cc3Cl)CC2)c(OC)c1")
13.68

Let us move to another entry and its SI (selectivity index: CC50/EC50).
Prompt: Retrieve SI (selectivity index: CC50/EC50) measured for Cc1onc(-c2ccccc2F)c1C(=O)N1CCC(c2ccc([N+](=O)[O-])cc2Cl)CC1 and print it.
Completion: 12.27
